// provenance: patent US20170296650A1

target: T1, hCMV glycoprotein B (gB; HEK293T transfectant) (hCMV, UniProt P06473 32-906); experiment: cell competition; competitor 2B11-biotin
T1 construct: whole, on cells; in the functional rows it stands for gB on virions or transduced cells of the strain or isolate named in the readout
T1 sequence (P06473 32-906 limits assumed): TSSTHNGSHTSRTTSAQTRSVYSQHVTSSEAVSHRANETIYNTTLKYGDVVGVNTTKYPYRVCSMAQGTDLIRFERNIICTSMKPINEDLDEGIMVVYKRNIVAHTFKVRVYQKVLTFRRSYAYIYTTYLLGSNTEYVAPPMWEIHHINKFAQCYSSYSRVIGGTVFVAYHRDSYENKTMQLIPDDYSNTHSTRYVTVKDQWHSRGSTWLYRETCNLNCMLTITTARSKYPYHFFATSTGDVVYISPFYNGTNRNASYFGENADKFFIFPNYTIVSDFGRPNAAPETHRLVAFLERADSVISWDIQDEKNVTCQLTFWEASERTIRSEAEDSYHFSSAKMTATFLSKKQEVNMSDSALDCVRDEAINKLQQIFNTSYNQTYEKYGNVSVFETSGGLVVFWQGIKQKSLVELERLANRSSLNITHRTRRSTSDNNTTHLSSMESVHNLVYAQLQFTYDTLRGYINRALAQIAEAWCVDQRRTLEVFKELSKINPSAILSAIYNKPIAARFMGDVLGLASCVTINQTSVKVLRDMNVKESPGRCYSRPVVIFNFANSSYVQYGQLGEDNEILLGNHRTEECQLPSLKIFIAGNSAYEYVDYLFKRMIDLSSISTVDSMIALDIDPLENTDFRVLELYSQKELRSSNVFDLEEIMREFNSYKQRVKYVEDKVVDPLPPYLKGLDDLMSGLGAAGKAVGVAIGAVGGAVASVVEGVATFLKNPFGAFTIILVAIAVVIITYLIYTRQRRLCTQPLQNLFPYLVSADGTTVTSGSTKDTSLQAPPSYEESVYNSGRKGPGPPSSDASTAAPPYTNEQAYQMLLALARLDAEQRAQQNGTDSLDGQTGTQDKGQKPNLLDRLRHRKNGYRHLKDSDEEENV
ASSAY_READOUT: Inhibition of binding (%)
Only the number, expressed in %, is required.

Record excerpt, results attached:
5F1 (antibody, V domains shown, human IgG; also called 5F1-biotin) VH: AVQLVESGGGLAQPGRSLRLSCKVSGFTFSSYEMNWVRQAPGKGLEWIAYIDFTGSTIYYADSVKGRFTISRDTARNSLYLQMNKLRVEDTAVYYCVRDAGRWGTSWYYFDYWGQGTLVTVSS VL: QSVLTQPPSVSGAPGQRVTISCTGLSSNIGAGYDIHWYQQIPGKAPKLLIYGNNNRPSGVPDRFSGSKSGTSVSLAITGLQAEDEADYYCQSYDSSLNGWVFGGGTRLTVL	100
4H9 (antibody, V domains shown, human IgG; also called 4H9-biotin; 4H9.6) VH: AVQLVESGGGLVRPGGSLRLSCAASGFTFSSHEMHWVRQAPGKGLEWLSYIDFTGSIIYYADSVRGRFTISRDNTKKSLFLQMNSLRDEDTALYYCARDGGRWGTSWYYFDYWGQGVLVTVSS VL: QSVLTQPPSVSGAPGQRVTITCTGSSSNFGAGYDGHWYQQLPGTAPKLLIYGSNRPSGVPDRFSGSKSGTSVSLAITGLQADDEADYYCQSYDSSLSAWVFGGGTKLTVL	100

// next item, Inhibition of binding (%) requested
Q) // lookup Inhibition of binding (%) for 10C6 (antibody, V domains shown, human IgG; also called 10C6-biotin; 1006) VH: AVQLVESGGGLAQPGRSLRLSCKVSGFSFSNFEMNWVRQAPGKGLEWIAYIDFTGSTIYYSDSVKGRFTISRDTARNSLYLQMNKLRVEDTAVYYCVRDAGRWGTSWYYFDYWGQGTLVTVSS VL: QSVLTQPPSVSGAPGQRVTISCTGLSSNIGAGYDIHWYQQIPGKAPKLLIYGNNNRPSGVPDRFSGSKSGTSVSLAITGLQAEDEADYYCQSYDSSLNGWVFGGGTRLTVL
A) 100
